Kindly state inhibition for each of the entries shown.
target-of-assay: Adenosine receptor A3 (Homo sapiens) (UniProt P0DMS8)
Sequence (whole entry): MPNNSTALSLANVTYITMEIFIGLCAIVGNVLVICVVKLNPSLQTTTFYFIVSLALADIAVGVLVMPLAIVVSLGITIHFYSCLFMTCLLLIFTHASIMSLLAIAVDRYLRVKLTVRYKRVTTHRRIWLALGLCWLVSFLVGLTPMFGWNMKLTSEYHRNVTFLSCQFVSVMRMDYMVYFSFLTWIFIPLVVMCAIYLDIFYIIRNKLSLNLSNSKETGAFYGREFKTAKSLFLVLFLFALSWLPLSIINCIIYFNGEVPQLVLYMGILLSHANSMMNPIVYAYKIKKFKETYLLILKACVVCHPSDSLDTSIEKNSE
test-summary: Displacement of [3H]AB-MECA from human adenosine A3 receptor expressed in CHO cells at 1 uM by scintillation counting analysis relative to control
Type: cell-based
Give bare numbers, in %.

Ask | Looking for the measured inhibition of C=CCOc1ccc(CCCc2nc(N)c3nn(-c4ccccc4)cc3n2)cc1 , can you help?
Reply | 3

I need inhibition for every entry listed below, if you could help.
1. COc1cccc(CCCc2nc(N)c3nn(-c4ccccc4)cc3n2)c1
2. COc1ccccc1CCCc1nc(N)c2nn(-c3ccccc3)cc2n1
3. Nc1nc(/C=C/c2ccccc2)nc2cn(-c3ccccc3)nc12
4. Nc1nc(Cc2ccccc2Cl)nc2cn(-c3ccccc3)nc12

Reply |
1: 33; 2: 47; 3: 25; 4: 22
